Reported CC50 at 2 h values follow for various compounds
- assay_comment: in vitro
- Assay type: cell-based, human
- protocol_conditions: human, dermal fibroblasts, IC50 2 h (cytotoxicity), 2 h incubation, MTT
Output spec: scalar in µM, unitless text.

{"compound_structure": "C[n+]1ccccc1C(=O)O[C@H]1CC[C@H]2[C@@H]3CCC4=CC(=O)CC[C@]4(C)[C@H]3CC[C@]12C", "value_unit": "µM", "CC50 at 2 h": 330}
{"compound_structure": "C[C@]12CC[C@H]3[C@@H](CCC4=CC(=O)CC[C@@]43C)[C@@H]1CC[C@@H]2OC(=O)CCC[N+](C)(C)C", "value_unit": "µM", "CC50 at 2 h": 653}
{"compound_structure": "C[C@]12CC[C@H]3[C@@H](CCC4=CC(=O)CC[C@@]43C)[C@@H]1CC[C@@H]2OC(=O)[C@@H]1CCC[N+]1(C)C", "value_unit": "µM", "CC50 at 2 h": 2130}

Kindly review the next compound as well.
Enquiry: So what does the record say about CC50 at 2 h for CCOC(=O)C[C@H](C[N+](C)(C)C)OC(=O)O[C@H]1CC[C@H]2[C@@H]3CCC4=CC(=O)CC[C@]4(C)[C@H]3CC[C@]12C ?
Return: 913

* * *

- assay_comment: Degradation (%/d)
Where a name gives a salt, the structure may show the parent alone.
Reported Degradation values follow for various compounds

{"compound": "COC(=O)[C@H](COC(=O)O[C@H]1CC[C@H]2[C@@H]3CCC4=CC(=O)CC[C@]4(C)[C@H]3CC[C@]12C)N(C)C [Code 3.6, hydrochloride salt]", "Degradation": "3.8 %/d"}

Enquiry: So what does the record say about Degradation for CN(C)CCCC(=O)O[C@H]1CC[C@H]2[C@@H]3CCC4=CC(=O)CC[C@]4(C)[C@H]3CC[C@]12C [Code 3.1, hydrochloride salt] ?
Return: 0 %/d

Enquiry: So what does the record say about Degradation for CCOC(=O)C[C@H](C[N+](C)(C)C)OC(=O)O[C@H]1CC[C@H]2[C@@H]3CCC4=CC(=O)CC[C@]4(C)[C@H]3CC[C@]12C [Code 4.1] ?
Return: 1 %/d

Enquiry: So what does the record say about Degradation for C[C@]12CC[C@H]3[C@@H](CCC4=CC(=O)CC[C@@]43C)[C@@H]1CC[C@@H]2OC(=O)[C@@H]1CCC[N+]1(C)C ?
Return: 0 %/d

Enquiry: So what does the record say about Degradation for C[C@]12CC[C@H]3[C@@H](CCC4=CC(=O)CC[C@@]43C)[C@@H]1CC[C@@H]2OC(=O)Oc1ccc(CC[N+](C)(C)C)cc1 ?
Return: 1 %/d

Enquiry: So what does the record say about Degradation for CC(=O)OC(CC(=O)O[C@H]1CC[C@H]2[C@@H]3CCC4=CC(=O)CC[C@]4(C)[C@H]3CC[C@]12C)C[N+](C)(C)C (stereo partly drawn) ?
Return: 0 %/d

* * *

- assay_comment: in vitro
- Type: cell-based, human
- protocol_conditions: human, dermal fibroblasts, IC50 2 h (cytotoxicity), 2 h incubation, MTT
Structures can show the parent of a compound that is named as a salt.
metric_name: CC50 at 2 h
Your reply should be a number followed by the unit it is expressed in.

Illustrative cases are given below, each with its answer.
{"molecule": "C[C@]12CC[C@H]3[C@@H](CCC4=CC(=O)CC[C@@]43C)[C@@H]1CC[C@@H]2OC(=O)CCCC[N+](C)(C)C", "CC50 at 2 h": "609 µM"}
{"molecule": "C[C@]12CC[C@H]3[C@@H](CCC4=CC(=O)CC[C@@]43C)[C@@H]1CC[C@@H]2OC(=O)C[N+](C)(C)C", "CC50 at 2 h": "2300 µM"}
{"molecule": "COC(=O)[C@H](COC(=O)O[C@H]1CC[C@H]2[C@@H]3CCC4=CC(=O)CC[C@]4(C)[C@H]3CC[C@]12C)N(C)C [Code 3.6, hydrochloride salt]", "CC50 at 2 h": "224 µM"}

Kindly review the next molecule as well.
Enquiry: So what does the record say about CC50 at 2 h for C[C@]12CC[C@H]3[C@@H](CCC4=CC(=O)CC[C@@]43C)[C@@H]1CC[C@@H]2OC(=O)C=CC[N+](C)(C)C ?
Return: 2290 µM

* * *

Reported H2O sol values follow for various compounds
- assay_comment: Water solubility (H2O sol)
Output spec: scalar in mg/mL, unitless text.

{"compound": "CCOC(=O)C[C@H](C[N+](C)(C)C)OC(=O)O[C@H]1CC[C@H]2[C@@H]3CCC4=CC(=O)CC[C@]4(C)[C@H]3CC[C@]12C [Code 4.1]", "H2O sol [mg/mL]": 21.0}
{"compound": "CCOC(=O)C[C@H](C[N+](C)(C)C)OC(=O)O[C@H]1CC[C@H]2[C@@H]3CCC4=CC(=O)CC[C@]4(C)[C@H]3CC[C@]12C [Code 1.7]", "H2O sol [mg/mL]": 5.3}
{"compound": "C[C@]12CC[C@H]3[C@@H](CCC4=CC(=O)CC[C@@]43C)[C@@H]1CC[C@@H]2O [Code 1.0, 17β-hydroxyandrost-4-en-3-one, reference compound]", "H2O sol [mg/mL]": 0.0}

Enquiry: So what does the record say about H2O sol for C[C@]12CC[C@H]3[C@@H](CCC4=CC(=O)CC[C@@]43C)[C@@H]1CC[C@@H]2OC(=O)c1cccnc1 [Code 2.7, Testosterone-17β-nicotinate] ?
Return: 0.0

* * *

- assay_comment: in vitro
- Format: in vitro ADME
- protocol_conditions: human, serum, 37° C., HPLC
We use 6 h as the dividing line for half-life: on or above the line is Fulfilled, below is Not fulfilled.

Enquiry: Does the compound CCOC(=O)C[C@H](C[N+](C)(C)C)OC(=O)O[C@H]1CC[C@H]2[C@@H]3CCC4=CC(=O)CC[C@]4(C)[C@H]3CC[C@]12C have recorded half-life that is 6 h or more?
Return: Not fulfilled

Enquiry: Does the compound C[C@]12CC[C@H]3[C@@H](CCC4=CC(=O)CC[C@@]43C)[C@@H]1CC[C@@H]2OC(=O)[C@@H]1CCC[N+]1(C)C have recorded half-life that is 6 h or more?
Return: Fulfilled

Enquiry: Does the compound C[C@]12CC[C@H]3[C@@H](CCC4=CC(=O)CC[C@@]43C)[C@@H]1CC[C@@H]2OC(=O)Oc1ccc(CC[N+](C)(C)C)cc1 have recorded half-life that is 6 h or more?
Return: Not fulfilled

Enquiry: Does the compound CC(=O)OC(CC(=O)O[C@H]1CC[C@H]2[C@@H]3CCC4=CC(=O)CC[C@]4(C)[C@H]3CC[C@]12C)C[N+](C)(C)C (stereo partly drawn) have recorded half-life that is 6 h or more?
Return: Fulfilled

Enquiry: Does the compound C[C@]12CC[C@H]3[C@@H](CCC4=CC(=O)CC[C@@]43C)[C@@H]1CC[C@@H]2OC(=O)OCOC(=O)CCCCC[N+](C)(C)C have recorded half-life that is 6 h or more?
Return: Not fulfilled

* * *

- assay_comment: in vitro
- Type: cell-based, human
- protocol_conditions: human, dermal fibroblasts, IC50 16 h (cytotoxicity), 16 h incubation, MTT
Reported CC50 at 16 h values follow for various compounds
Output spec: scalar in µM, unitless text.

Illustrative cases are given below, each with its answer.
{"compound": "C[C@]12CC[C@H]3[C@@H](CCC4=CC(=O)CC[C@@]43C)[C@@H]1CC[C@@H]2OC(=O)C[N+](C)(C)C", "CC50 at 16 h (µM)": 650}
{"compound": "C[C@]12CC[C@H]3[C@@H](CCC4=CC(=O)CC[C@@]43C)[C@@H]1CC[C@@H]2OC(=O)CCCC[N+](C)(C)C", "CC50 at 16 h (µM)": 568}

Enquiry: So what does the record say about CC50 at 16 h for C[C@]12CC[C@H]3[C@@H](CCC4=CC(=O)CC[C@@]43C)[C@@H]1CC[C@@H]2OC(=O)Oc1ccc(CC[N+](C)(C)C)cc1 ?
Return: 44.6

* * *

- Assay type: in vitro ADME, mouse
- protocol_conditions: murine skin, active cells (ETm), 10 mM donor, 100 uA/cm^2, 6 h, 32° C.
Note to self: Flux, active electrotransport (ET) under 20 nmol/cm^2 /hr means Condition met, ties and anything higher get Condition not met.

Solved cases (3 shown):
{"molecule": "CC(=O)OC(CC(=O)O[C@H]1CC[C@H]2[C@@H]3CCC4=CC(=O)CC[C@]4(C)[C@H]3CC[C@]12C)C[N+](C)(C)C (stereo partly drawn)", "assigned_category": "Condition met"}
{"molecule": "C[C@]12CC[C@H]3[C@@H](CC=C4C=C(OC(=O)CCC[N+](C)(C)C)CC[C@@]43C)[C@@H]1CC[C@@H]2OC(=O)CCC[N+](C)(C)C", "assigned_category": "Condition met"}
{"molecule": "C[C@]12CC[C@H]3[C@@H](CCC4=CC(=O)CC[C@@]43C)[C@@H]1CC[C@@H]2OC(=O)OCC[N+](C)(C)C", "assigned_category": "Condition not met"}

Enquiry: Strictly below 20 nmol/cm^2 /hr: is that where Flux, active electrotransport (ET) of C[C@]12CC[C@H]3[C@@H](CCC4=CC(=O)CC[C@@]43C)[C@@H]1CC[C@@H]2OC(=O)CC[N+](C)(C)C sits?
Return: Condition met

Enquiry: Strictly below 20 nmol/cm^2 /hr: is that where Flux, active electrotransport (ET) of C[C@]12CC[C@H]3[C@@H](CCC4=CC(=O)CC[C@@]43C)[C@@H]1CC[C@@H]2OC(=O)Oc1ccc(CC[N+](C)(C)C)cc1 sits?
Return: Condition met

Enquiry: Strictly below 20 nmol/cm^2 /hr: is that where Flux, active electrotransport (ET) of CCOC(=O)C[C@H](C[N+](C)(C)C)OC(=O)O[C@H]1CC[C@H]2[C@@H]3CCC4=CC(=O)CC[C@]4(C)[C@H]3CC[C@]12C [Code 4.1] sits?
Return: Condition met
